subjectOfTest: recombinant hPTP1B (phosphotyrosine phosphatase 1B) (Homo sapiens, UniProt P18031)
Construct: but without the carboxy-terminal hydrophobic region (corresponding to 1-299 aa)
Sequence (P18031 1-299): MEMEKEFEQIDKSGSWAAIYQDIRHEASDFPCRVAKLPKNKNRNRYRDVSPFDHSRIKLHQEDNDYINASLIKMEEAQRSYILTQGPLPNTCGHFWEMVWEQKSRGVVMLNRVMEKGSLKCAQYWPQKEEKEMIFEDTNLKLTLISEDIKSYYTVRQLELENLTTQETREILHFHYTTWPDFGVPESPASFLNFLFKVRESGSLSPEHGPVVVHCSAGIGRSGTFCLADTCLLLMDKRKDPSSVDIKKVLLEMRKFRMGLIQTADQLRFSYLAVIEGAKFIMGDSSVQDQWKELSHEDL
procedureSummary: Enzymatic test for inhibition of a phosphatase (phosphopeptide dephosphorylation / p-nitrophenyl phosphate cleavage)
testContext: Table 3 Biological activity; inhibition of PTP1B; table does not say which substrate format (A phosphopeptide or B pNPP)
pIC50: −log10 of the molar value.
quantityMeasured: pIC50

mol=Cc1ccc(CN(Cc2ccc(-c3ccc(O)c(C(=O)O)c3)cc2)C(=O)c2ccc3c(c2)OCO3)cc1 observedvalue=5.89
mol=O=C(O)c1cc(-c2ccc(CN(C(=O)c3ccc4c(c3)OCO4)C3CCCC3)cc2)ccc1O observedvalue=5.74
mol=COc1cccc(C(=O)N(Cc2ccc(C)cc2)Cc2ccc(-c3ccc(O)c(C(=O)O)c3)cc2)c1 observedvalue=5.77
mol=COc1ccccc1CN(Cc1ccc(-c2ccc(O)c(C(=O)O)c2)cc1)C(=O)c1ccc(Br)cc1 observedvalue=5.92

Entry source: patent US7453009B2
